The measurements presented in this section are drawn from patent US20170052184A1.

# targetDesc: T1, HCV Core1-169 (HCV-1, UniProt P26664 1-169)
# T1 construct: also called recombinant HCV core antigen
# T1 sequence: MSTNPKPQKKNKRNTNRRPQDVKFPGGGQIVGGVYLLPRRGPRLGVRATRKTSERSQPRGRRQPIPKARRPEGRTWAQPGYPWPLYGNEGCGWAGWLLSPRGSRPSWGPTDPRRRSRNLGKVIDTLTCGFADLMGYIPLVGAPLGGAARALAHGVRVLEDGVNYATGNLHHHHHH
# assayProcedure: EIA, core1-169 coated on plate; further: test concentration or dose not given here
Would you kindly list OD (A492) for each of these binders?

Challenge: Specify OD (A492) for HCV 208B-612 (antibody, V domains shown) VH: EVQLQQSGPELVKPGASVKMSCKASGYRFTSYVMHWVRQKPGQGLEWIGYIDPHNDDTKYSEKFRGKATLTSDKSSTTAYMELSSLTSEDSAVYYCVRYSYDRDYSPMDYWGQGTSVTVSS VL: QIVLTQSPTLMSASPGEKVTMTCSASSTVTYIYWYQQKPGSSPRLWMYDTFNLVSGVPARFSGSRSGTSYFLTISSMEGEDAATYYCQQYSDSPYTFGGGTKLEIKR and stop.
Response given: 0.18 OD

Challenge: Using the record for HCV 208A-352 (antibody, V domains shown) VH: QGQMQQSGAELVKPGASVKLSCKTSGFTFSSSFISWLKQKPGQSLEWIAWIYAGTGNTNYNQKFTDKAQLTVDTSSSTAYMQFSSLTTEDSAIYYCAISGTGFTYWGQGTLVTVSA VL: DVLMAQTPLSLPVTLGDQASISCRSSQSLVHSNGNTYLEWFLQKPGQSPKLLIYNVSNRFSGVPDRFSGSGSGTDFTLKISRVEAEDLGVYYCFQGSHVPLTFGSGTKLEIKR , state its measured OD (A492).
Response given: 0.1 OD

Challenge: Kindly indicate its recorded OD (A492). Item: HCV 208A-126 (antibody, V domains shown) VH: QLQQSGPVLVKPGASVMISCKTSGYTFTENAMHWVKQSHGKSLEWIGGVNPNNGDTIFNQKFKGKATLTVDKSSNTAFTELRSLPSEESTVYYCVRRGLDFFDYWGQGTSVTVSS VL: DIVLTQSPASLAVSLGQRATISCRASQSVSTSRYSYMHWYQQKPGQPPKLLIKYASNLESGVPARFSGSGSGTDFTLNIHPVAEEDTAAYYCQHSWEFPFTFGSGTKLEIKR
Response given: 0.69 OD

Challenge: Using known records, supply OD (A492) for HCV 208A-1064 (antibody, V domains shown) VH: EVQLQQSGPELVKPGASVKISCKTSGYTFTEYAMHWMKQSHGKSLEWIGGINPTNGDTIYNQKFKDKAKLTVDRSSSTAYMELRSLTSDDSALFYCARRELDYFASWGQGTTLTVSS VL: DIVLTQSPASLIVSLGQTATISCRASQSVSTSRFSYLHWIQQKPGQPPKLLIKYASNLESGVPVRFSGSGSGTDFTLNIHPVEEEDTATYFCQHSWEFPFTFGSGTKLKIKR
Response given: 0.94 OD

Challenge: Respond only with OD (A492) recorded for HCV 208A-210 (antibody, V domains shown) VH: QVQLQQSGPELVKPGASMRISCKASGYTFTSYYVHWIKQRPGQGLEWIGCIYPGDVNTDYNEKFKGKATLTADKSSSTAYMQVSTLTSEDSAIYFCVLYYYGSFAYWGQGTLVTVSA VL: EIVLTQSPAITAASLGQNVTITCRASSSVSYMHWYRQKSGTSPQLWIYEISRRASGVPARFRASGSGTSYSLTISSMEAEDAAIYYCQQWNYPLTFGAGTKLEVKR
Response given: 0.87 OD
